experimental.system: Cytochrome P450 2C9 (Homo sapiens)
Sequence (P11712 whole entry): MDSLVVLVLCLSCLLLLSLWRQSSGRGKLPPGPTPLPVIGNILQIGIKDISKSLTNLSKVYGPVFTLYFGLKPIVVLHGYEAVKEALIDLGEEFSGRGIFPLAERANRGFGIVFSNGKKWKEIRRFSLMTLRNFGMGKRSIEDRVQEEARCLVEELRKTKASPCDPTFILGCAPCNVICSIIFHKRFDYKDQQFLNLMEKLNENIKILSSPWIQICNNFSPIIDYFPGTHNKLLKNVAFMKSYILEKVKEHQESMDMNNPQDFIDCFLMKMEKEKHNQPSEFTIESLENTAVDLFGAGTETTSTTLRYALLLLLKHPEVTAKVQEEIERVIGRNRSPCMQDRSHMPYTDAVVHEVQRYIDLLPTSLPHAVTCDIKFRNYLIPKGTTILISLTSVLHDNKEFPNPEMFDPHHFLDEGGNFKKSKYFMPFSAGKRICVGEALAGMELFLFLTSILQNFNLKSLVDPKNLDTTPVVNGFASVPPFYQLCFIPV
Assignment: determine reported pKi for the given molecules.
Give bare numbers, as −log10 of the molar value.

Recorded pKi, per entry:
query.smiles: CCCc1oc2ccccc2c(=O)c1C(=O)c1cc(I)c(O)c(I)c1
pKi: 8.38
//
query.smiles: COc1ccc(C(=O)c2c(C)oc3ccccc3c2=O)cc1
pKi: 5.23
//
query.smiles: Cc1oc2ccccc2c(=O)c1C(=O)c1ccc(O)cc1
pKi: 5.17

Next molecule, pKi to be filled in.
Q: What measured pKi goes with `CCc1oc2ccccc2c(=O)c1C(=O)c1cc(I)c(O)c(I)c1` ?
Ans: 7.64

====

test.summary: Dissociation constant, pKa of the compound
recorded.endpoint: pKa

Hi there! I need pKa for each item below, if you can.
1. CCCc1oc2ccccc2c(=O)c1C(=O)c1ccc(O)cc1
2. Cc1oc2ccccc2c(=O)c1C(=O)c1cc(I)c(O)c(I)c1
3. CCc1oc2ccccc2c(=O)c1C(=O)c1ccc(O)cc1
4. CCc1oc2ccccc2c(=O)c1C(=O)c1cc(Br)c(O)c(Br)c1
5. CCc1oc2ccccc2c(=O)c1C(=O)c1cc(I)c(O)c(I)c1
6. Cc1oc2ccccc2c(=O)c1C(=O)c1ccc(O)cc1
7. CCCc1oc2ccccc2c(=O)c1C(=O)c1cc(I)c(O)c(I)c1

Ans:
1: 7.74; 2: 4.89; 3: 7.74; 4: 4.72; 5: 4.89; 6: 7.74; 7: 4.89
